Provide the reported log10(kon) of each item.
- assay-target: T1, human CD3 epsilon (Acro Cat #CDE-H5223) (human, UniProt P07766 23-126)
- T1 construct: Bought recombinant protein; also called rhCD3E
- T1 sequence (P07766 23-126 limits assumed): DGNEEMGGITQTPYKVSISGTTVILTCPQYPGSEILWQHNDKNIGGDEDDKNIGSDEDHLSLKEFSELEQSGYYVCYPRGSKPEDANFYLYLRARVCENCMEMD
- procedure-text: SPR (Biacore), antibody captured, human CD3 epsilon analyte
For clarity, the numbers are log10 values of kon expressed in M⁻¹ s⁻¹.

Please report the recorded log10(kon) for 2037-B10_Hc-F29D (antibody, human IgG1, lambda, V domains shown, human IgG1, lambda; also called SRP 2037 F29D; 2037-B10_VH-F29D) VH: EVQLVESGGGLVKPGGSLRLSCAASGFTDNKYAMNWVRQAPGKGLEWVARIRTKYNNYATYYADSVKDRFTISRDDSKNTAYLQMNSLKTEDTAVYYCVRHGNFGNSYISYWAYWGQGTPVTVSS VL: QTVVTQEPSLTVSPGGTVTLTCGSSTGAVTSGYYPNWLQQKPGQAPRGLIGGTKFLAPGTPARFSGSLLGGKAALTLSGVQPEDEAEYYCALWYSNRWVFGGGTQLTVTG .
5.32

Please report the recorded log10(kon) for 2037-B10_Hc-N30D (antibody, human IgG1, lambda, V domains shown, human IgG1, lambda; also called SRP 2037 N30D; 2037-B10_VH-N30D) VH: EVQLVESGGGLVKPGGSLRLSCAASGFTFDKYAMNWVRQAPGKGLEWVARIRTKYNNYATYYADSVKDRFTISRDDSKNTAYLQMNSLKTEDTAVYYCVRHGNFGNSYISYWAYWGQGTPVTVSS VL: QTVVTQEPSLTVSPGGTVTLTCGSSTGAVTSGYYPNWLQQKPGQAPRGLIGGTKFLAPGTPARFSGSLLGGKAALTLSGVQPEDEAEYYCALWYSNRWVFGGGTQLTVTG .
5.72

Please report the recorded log10(kon) for 2037-B10_Hc-Y55D (antibody, human IgG1, lambda, V domains shown, human IgG1, lambda; also called SRP 2037 Y55D; 2037-B10_VH-Y55D) VH: EVQLVESGGGLVKPGGSLRLSCAASGFTFNKYAMNWVRQAPGKGLEWVARIRTKDNNYATYYADSVKDRFTISRDDSKNTAYLQMNSLKTEDTAVYYCVRHGNFGNSYISYWAYWGQGTPVTVSS VL: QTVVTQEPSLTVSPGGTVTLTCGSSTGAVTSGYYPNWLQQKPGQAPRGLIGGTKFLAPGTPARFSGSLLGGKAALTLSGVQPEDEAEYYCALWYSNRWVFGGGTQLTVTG .
5.45

Please report the recorded log10(kon) for 2037-B10_Hc-N56D (antibody, human IgG1, lambda, V domains shown, human IgG1, lambda; also called SRP 2037 N56D; 2037-B10_VH-N56D) VH: EVQLVESGGGLVKPGGSLRLSCAASGFTFNKYAMNWVRQAPGKGLEWVARIRTKYDNYATYYADSVKDRFTISRDDSKNTAYLQMNSLKTEDTAVYYCVRHGNFGNSYISYWAYWGQGTPVTVSS VL: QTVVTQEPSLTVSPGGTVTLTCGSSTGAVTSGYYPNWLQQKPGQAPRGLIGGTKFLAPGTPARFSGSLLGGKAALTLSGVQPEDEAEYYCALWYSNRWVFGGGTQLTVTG .
5.09

Please report the recorded log10(kon) for 2037-B10_Hc-F27D (antibody, human IgG1, lambda, V domains shown, human IgG1, lambda; also called SRP 2037 F27D; 2037-B10_VH-F27D) VH: EVQLVESGGGLVKPGGSLRLSCAASGDTFNKYAMNWVRQAPGKGLEWVARIRTKYNNYATYYADSVKDRFTISRDDSKNTAYLQMNSLKTEDTAVYYCVRHGNFGNSYISYWAYWGQGTPVTVSS VL: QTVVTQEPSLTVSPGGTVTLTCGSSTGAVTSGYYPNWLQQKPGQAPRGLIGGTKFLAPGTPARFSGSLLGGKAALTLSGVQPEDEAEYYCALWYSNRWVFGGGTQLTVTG .
5.41

Please report the recorded log10(kon) for 2037-B10_Hc-Y61D (antibody, human IgG1, lambda, V domains shown, human IgG1, lambda; also called SRP 2037 Y61D; 2037-B10_VH-Y61D) VH: EVQLVESGGGLVKPGGSLRLSCAASGFTFNKYAMNWVRQAPGKGLEWVARIRTKYNNYATDYADSVKDRFTISRDDSKNTAYLQMNSLKTEDTAVYYCVRHGNFGNSYISYWAYWGQGTPVTVSS VL: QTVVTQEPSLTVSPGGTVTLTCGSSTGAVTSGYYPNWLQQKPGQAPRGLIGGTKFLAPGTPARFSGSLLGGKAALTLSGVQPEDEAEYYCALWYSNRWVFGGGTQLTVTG .
5.51

Please report the recorded log10(kon) for 2037-B10_Hc-N103D (antibody, human IgG1, lambda, V domains shown, human IgG1, lambda; also called SRP 2037 N103D; 2037-B10_VH-N103D) VH: EVQLVESGGGLVKPGGSLRLSCAASGFTFNKYAMNWVRQAPGKGLEWVARIRTKYNNYATYYADSVKDRFTISRDDSKNTAYLQMNSLKTEDTAVYYCVRHGDFGNSYISYWAYWGQGTPVTVSS VL: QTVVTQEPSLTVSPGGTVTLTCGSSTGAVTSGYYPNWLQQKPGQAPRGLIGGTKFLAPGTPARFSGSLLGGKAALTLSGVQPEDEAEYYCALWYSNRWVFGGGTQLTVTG .
3.84

Please report the recorded log10(kon) for 2037-B10_Hc-S107D (antibody, human IgG1, lambda, V domains shown, human IgG1, lambda; also called SRP 2037 S107D; 2037-B10_VH-S107D) VH: EVQLVESGGGLVKPGGSLRLSCAASGFTFNKYAMNWVRQAPGKGLEWVARIRTKYNNYATYYADSVKDRFTISRDDSKNTAYLQMNSLKTEDTAVYYCVRHGNFGNDYISYWAYWGQGTPVTVSS VL: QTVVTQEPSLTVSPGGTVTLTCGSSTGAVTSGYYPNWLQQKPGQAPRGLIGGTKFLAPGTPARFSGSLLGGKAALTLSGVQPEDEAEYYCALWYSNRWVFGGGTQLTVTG .
5.16

Please report the recorded log10(kon) for 2037-B10_Hc-A59D (antibody, human IgG1, lambda, V domains shown, human IgG1, lambda; also called SRP 2037 A59D; 2037-B10_VH-A59D) VH: EVQLVESGGGLVKPGGSLRLSCAASGFTFNKYAMNWVRQAPGKGLEWVARIRTKYNNYDTYYADSVKDRFTISRDDSKNTAYLQMNSLKTEDTAVYYCVRHGNFGNSYISYWAYWGQGTPVTVSS VL: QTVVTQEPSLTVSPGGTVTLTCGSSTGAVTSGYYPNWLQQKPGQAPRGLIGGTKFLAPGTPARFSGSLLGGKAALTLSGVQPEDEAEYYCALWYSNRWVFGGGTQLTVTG .
5.72

Please report the recorded log10(kon) for 2037-B10_Hc-N106D (antibody, human IgG1, lambda, V domains shown, human IgG1, lambda; also called SRP 2037 N106D; 2037-B10_VH-N106D) VH: EVQLVESGGGLVKPGGSLRLSCAASGFTFNKYAMNWVRQAPGKGLEWVARIRTKYNNYATYYADSVKDRFTISRDDSKNTAYLQMNSLKTEDTAVYYCVRHGNFGDSYISYWAYWGQGTPVTVSS VL: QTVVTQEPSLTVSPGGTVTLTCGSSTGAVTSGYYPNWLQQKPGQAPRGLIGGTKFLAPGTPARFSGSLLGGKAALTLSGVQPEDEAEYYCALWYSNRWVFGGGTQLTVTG .
5.52

Please report the recorded log10(kon) for 2037-B10_Hc-K54D (antibody, human IgG1, lambda, V domains shown, human IgG1, lambda; also called SRP 2037 K54D; 2037-B10_VH-K54D) VH: EVQLVESGGGLVKPGGSLRLSCAASGFTFNKYAMNWVRQAPGKGLEWVARIRTDYNNYATYYADSVKDRFTISRDDSKNTAYLQMNSLKTEDTAVYYCVRHGNFGNSYISYWAYWGQGTPVTVSS VL: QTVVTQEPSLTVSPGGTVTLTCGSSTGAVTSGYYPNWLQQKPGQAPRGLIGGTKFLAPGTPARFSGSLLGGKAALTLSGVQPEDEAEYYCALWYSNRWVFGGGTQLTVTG .
5.53
